Tested on: E. coli GC 4560
Assay: Broth dilution MIC
Type: cell-based
Conditions: Mueller-Hinton broth, 18 hours at 35° C.
Method: The in vitro antibacterial activity of AA-896-A1, AA-896-A2, AA-896-A3, AA-896-A4, AA-896-A5, AA-896-B1, AA-896-B2, AA-896-B3, AA-896-B4, AA-896-B5, AA-896-B6, AA-896-B7, AA-896-C1, AA-896-C2, AA-896-C3, AA-896-C4, AA-896-D1, AA896-D2 and AA-896-D3 is determined against a spectrum of Gram-positive and Gram-negative bacteria by a standard broth dilution method. Serial dilution of the compounds are made in Mueller-Hinton broth and inoculated with a bacterial suspension. […]
quantity measured: Antimicrobial Activity (MIC)

INSERT INTO results (molecule, test_system, quantity_measured, result) VALUES
  ('COC1C(OC(C(NCCCNC(=O)C(NC(=O)C(NC(=O)NC(C(=O)O)C(C)C)C2CCNC(=N)N2)C(OC(=O)CCCCC(C)C)C(C)C)C(=O)O)C2OC(n3ccc(=O)[nH]c3=O)C(O)C2O)OC(CN)C1O (stereo not drawn)', 'E. coli GC 4560', 'Antimicrobial Activity (MIC)', '<=0.06 μg/ml'),
  ('CC(C)CCCCC(=O)OC(C(C)C)C(NC(=O)C(NC(=O)NC(C(=O)O)C(C)C)C1CCNC(=N)N1)C(=O)NCCCNC(C(=O)O)C(OC1OC(CN)C(O)C1O)C1OC(n2ccc(=O)[nH]c2=O)C(O)C1O (stereo not drawn)', 'E. coli GC 4560', 'Antimicrobial Activity (MIC)', '<=0.06 μg/ml'),
  ('COC1C(OC(C(NCCCNC(=O)C(NC(=O)C(NC(=O)NC(C(=O)O)C(C)C)C2CCNC(=N)N2)C(OC(=O)CCCCCC(C)C)C(C)C)C(=O)O)C2OC(n3ccc(=O)[nH]c3=O)C(O)C2O)OC(CN)C1O (stereo not drawn)', 'E. coli GC 4560', 'Antimicrobial Activity (MIC)', '<=0.06 μg/ml');

---

System: E. coli GC 2203
Assay: Broth dilution MIC
Type: cell-based
Conditions: Mueller-Hinton broth, 18 hours at 35° C.
quantity measured: Antimicrobial Activity (MIC) (µg/mL)

INSERT INTO assay_data (compound, quantity_measured, unit_name, bound_operator, quantitative_result) VALUES
  ('COC1C(OC(C(NCCCNC(=O)C(CC(C)C)NC(=O)C(NC(=O)NC(C(=O)O)C(C)C)C2CCNC(=N)N2)C(=O)O)C2OC(n3ccc(=O)[nH]c3=O)C(O)C2O)OC(CN)C1O (stereo not drawn) [AA-896-D1]', 'Antimicrobial Activity (MIC)', 'µg/mL', '>', 32),
  ('CC(C)CCCCC(=O)OC(C(C)C)C(NC(=O)C(NC(=O)NC(C(=O)O)C(C)C)C1CCNC(=N)N1)C(=O)NCCCNC(C(=O)O)C(OC1OC(CN)C(O)C1O)C1OC(n2ccc(=O)[nH]c2=O)C(O)C1O (stereo not drawn)', 'Antimicrobial Activity (MIC)', 'µg/mL', '>', 64),
  ('COC1C(OC(C(NCCCNC(=O)C(NC(=O)C(NC(=O)NC(C(=O)O)C(C)C)C2CCNC(=N)N2)C(OC(=O)CCCCC(C)C)C(C)C)C(=O)O)C2OC(n3ccc(=O)[nH]c3=O)C(O)C2O)OC(CN)C1O (stereo not drawn)', 'Antimicrobial Activity (MIC)', 'µg/mL', '=', 64),
  ('CC(C)C(NC(=O)NC(C(=O)NC(C(=O)NCCCNC(C(=O)O)C(OC1CC(O)C(CN)O1)C1OC(n2ccc(=O)[nH]c2=O)C(O)C1O)C(O)C(C)C)C1CCNC(=N)N1)C(=O)O (stereo not drawn)', 'Antimicrobial Activity (MIC)', 'µg/mL', '=', 16),
  ('CC(C)CC(NC(=O)C(NC(=O)NC(C(=O)O)C(C)C)C1CCNC(=N)N1)C(=O)NCCCNC(C(=O)O)C(OC1CC(O)C(CN)O1)C1OC(n2ccc(=O)[nH]c2=O)C(O)C1O (stereo not drawn)', 'Antimicrobial Activity (MIC)', 'µg/mL', '=', 32),
  ('CCC(C)CCCCC(=O)OC(C(C)C)C(NC(=O)C(NC(=O)NC(C(=O)O)C(C)C)C1CCNC(=N)N1)C(=O)NCCCNC(C(=O)O)C(O[C@@H]1O[C@H](CN)[C@@H](O)[C@H]1OC)C1OC(n2ccc(=O)[nH]c2=O)C(O)C1O (stereo partly drawn)', 'Antimicrobial Activity (MIC)', 'µg/mL', '>', 32);
